meta.source: the supplement of paper PMC6555819

Test system: FXR:RXRa (NR concentration 270 nM, RXRa partner concentration 90 nM)
Test: PBM binding z-score (relative to random genomic background probes); higher = stronger binding; sequences stand for … in GC…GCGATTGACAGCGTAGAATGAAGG
Decide using PBM binding z-score: a value greater than or equal to 3 is 1, a smaller one is 0.

Hello, I need to know if `TCTAGTTGGTCACGGAGGTTACACACGACGGGTA` has measured PBM binding z-score not below 3. Thanks!
0

Tell me whether PBM binding z-score is at least 3 here: `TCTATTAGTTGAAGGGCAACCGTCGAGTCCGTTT`
0

Does the sequence `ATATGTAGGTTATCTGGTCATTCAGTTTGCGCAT` have recorded PBM binding z-score that is 3 or more?
0

Given `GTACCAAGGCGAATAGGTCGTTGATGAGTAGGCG` , state whether its PBM binding z-score is at least 3.
0

I'd appreciate it if you could say whether `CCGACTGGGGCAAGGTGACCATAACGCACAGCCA` has PBM binding z-score at least equal to 3.
0

Say whether `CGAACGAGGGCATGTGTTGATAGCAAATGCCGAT` shows PBM binding z-score of 3 or more.
0

Entry `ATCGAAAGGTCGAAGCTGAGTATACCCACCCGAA` : is its PBM binding z-score no less than 3?
1

Has `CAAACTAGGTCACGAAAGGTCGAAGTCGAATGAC` a recorded PBM binding z-score greater than or equal to 3?
1

Could you tell me if the measured PBM binding z-score of `CCTACTGGGCAACGAAAGGTCATTGATTCAGTGA` reaches 3 or more?
1

Given `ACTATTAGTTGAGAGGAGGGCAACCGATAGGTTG` , state whether its PBM binding z-score is at least 3.
0

Is it the case that `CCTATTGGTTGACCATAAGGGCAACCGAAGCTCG` has PBM binding z-score reaching or exceeding 3?
0

Could you verify whether the entry `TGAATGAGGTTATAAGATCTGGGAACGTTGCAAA` shows PBM binding z-score of no less than 3?
0

Say whether `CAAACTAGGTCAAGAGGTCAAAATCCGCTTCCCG` shows PBM binding z-score of 3 or more.
1

Given `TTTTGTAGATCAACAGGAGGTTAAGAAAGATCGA` , state whether its PBM binding z-score is at least 3.
0

Does PBM binding z-score meet or surpass 3 for `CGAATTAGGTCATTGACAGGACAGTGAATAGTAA` ?
1

Is PBM binding z-score for `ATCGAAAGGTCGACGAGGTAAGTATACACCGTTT` at or above 3?
1

Please check the record `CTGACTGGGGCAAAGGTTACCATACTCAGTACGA` and state if its PBM binding z-score is at or above 3.
0

Check this sequence for PBM binding z-score at or above 3: `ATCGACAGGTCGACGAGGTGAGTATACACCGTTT`
0

Is PBM binding z-score for `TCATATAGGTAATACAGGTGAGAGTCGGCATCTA` at or above 3?
0

Dear colleague, could you confirm whether `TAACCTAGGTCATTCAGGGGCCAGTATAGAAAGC` has PBM binding z-score at or above 3?
1

Kindly determine if PBM binding z-score recorded for `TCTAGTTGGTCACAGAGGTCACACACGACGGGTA` is above or exactly 3.
1

Item `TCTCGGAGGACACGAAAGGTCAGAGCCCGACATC` with PBM binding z-score of 3 or above?
0

Exam item: decide whether the reported PBM binding z-score for `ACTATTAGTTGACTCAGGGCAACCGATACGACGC` is at least 3.
0

Reported PBM binding z-score at or above 3? `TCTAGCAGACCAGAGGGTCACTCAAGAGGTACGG`
0

Determine whether this sequence has PBM binding z-score no lower than 3: `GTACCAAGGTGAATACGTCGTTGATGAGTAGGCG`
0

Determine whether measured PBM binding z-score meets or exceeds 3 for `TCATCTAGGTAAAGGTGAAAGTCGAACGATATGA`
0

Is reported PBM binding z-score greater than or equal to 3 here: `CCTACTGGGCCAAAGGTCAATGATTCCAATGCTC`
1

Check the entry `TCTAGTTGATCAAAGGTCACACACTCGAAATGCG` : does PBM binding z-score equal or exceed 3?
1

Record `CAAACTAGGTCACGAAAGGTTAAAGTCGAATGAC` ; criterion: PBM binding z-score no lower than 3. Met?
1

Is reported PBM binding z-score greater than or equal to 3 here: `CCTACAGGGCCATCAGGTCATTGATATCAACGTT`
0

Could you tell me if the measured PBM binding z-score of `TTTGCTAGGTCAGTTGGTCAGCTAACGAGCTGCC` reaches 3 or more?
0

Exam item: decide whether the reported PBM binding z-score for `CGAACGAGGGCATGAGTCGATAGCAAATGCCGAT` is at least 3.
0

Form field: PBM binding z-score at least 3? Entry: `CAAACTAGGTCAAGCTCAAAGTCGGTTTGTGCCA`
1

Could you please find out whether `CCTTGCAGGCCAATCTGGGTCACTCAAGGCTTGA` has PBM binding z-score that meets 3 or exceeds it?
0

Form field: PBM binding z-score at least 3? Entry: `CCTGTTAGGTCAATGGTCAGCTAAAGCAGCTCGC`
1

Test whether the sequence `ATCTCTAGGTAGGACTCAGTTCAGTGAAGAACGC` records PBM binding z-score of 3 or higher.
0

PBM binding z-score >= 3 for `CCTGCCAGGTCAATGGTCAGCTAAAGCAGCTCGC` ?
1

Given `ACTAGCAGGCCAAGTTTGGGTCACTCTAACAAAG` , state whether its PBM binding z-score is at least 3.
0

Form field: PBM binding z-score at least 3? Entry: `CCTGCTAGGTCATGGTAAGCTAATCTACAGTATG`
1

Given the entry `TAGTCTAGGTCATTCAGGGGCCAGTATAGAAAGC` , answer whether its PBM binding z-score meets or surpasses 3.
1

Hello, I need to know if `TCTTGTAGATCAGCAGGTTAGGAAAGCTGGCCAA` has measured PBM binding z-score not below 3. Thanks!
0

Quick check, PBM binding z-score >= 3? `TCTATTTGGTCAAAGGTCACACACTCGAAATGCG`
1
